Taken from PubChem BioAssay AID1159580.

# ASSAY_DETAILS: chemical genetic growth profiling, strain panel (AID 1159580);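 note: tested at 20 µM; growth read once vehicle control cultures reached saturation at 30 °C; 1 = growth at the plate median or of vehicle wells; lower values mean less growth of the strain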
# SETUP_CONDITIONS: S. cerevisiae deletion strains, growth OD, locus YOR069W, strain VPS5
In all, about 5,500 compounds went through this assay and about 2,000 (36%) were called active. Another 18% or so got no clear call; they are omitted. Cut-off read from the data, not from the text of the source: active = normalized growth mostly below about 0.91 (no sharp cut-off); inconclusive = no clear call, values can overlap the other calls; inactive = mostly above about 0.92. Some of the results follow.
Labels: YES = active, NO = inactive

- RECORD_SMILES: "NC(N)=Nc1ccc(Cl)cc1"
  CLASSIFICATION: "YES"
- RECORD_SMILES: "NC(=O)c1ccc([N+](=O)[O-])cc1Cl"
  CLASSIFICATION: "NO"
- RECORD_SMILES: "C[C@]12CCC(=O)C=C1CCc1ccc(O)cc12"
  CLASSIFICATION: "NO"

###

# ASSAY_DETAILS: chemical genetic growth profiling, strain panel (AID 1159580);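 note: tested at 20 µM; growth read once vehicle control cultures reached saturation at 30 °C; 1 = growth at the plate median or of vehicle wells; lower values mean less growth of the strain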
# SETUP_CONDITIONS: S. cerevisiae deletion strains, growth OD, locus YOR106W, strain vam3, stronger effect = lower value
In all, about 5,500 compounds went through this assay and about 2,000 (36%) were called active. Not shown: some 18% with an inconclusive outcome. The list shows a part of the results.
The compounds listed here are annotated with their normalized growth.
OBSERVATION_TYPE: normalized growth

- COMPOUND: "CC1Cc2ccccc2N1NC(=O)c1ccc(Cl)c(S(N)(=O)=O)c1 (stereo not drawn)"
  MEAS_VALUE: "0.981 (inactive)"
- COMPOUND: "CCC(=O)OCC(=O)[C@@]1(OC(=O)CC)[C@@H](C)CC2C3CCC4=CC(=O)C=C[C@]4(C)C3(F)[C@@H](O)C[C@@]21C (stereo partly drawn)"
  MEAS_VALUE: "0.995 (inactive)"
- COMPOUND: "CC(C)(C)NCC(O)COc1cccc2c1C[C@H](O)[C@H](O)C2 (stereo partly drawn)"
  MEAS_VALUE: "1.02 (inactive)"
- COMPOUND: "CNC[C@H](O)c1cccc(O)c1"
  MEAS_VALUE: "0.98 (inactive)"
- COMPOUND: "Nc1nc(/C(=C/CC(=O)O)C(=O)N[C@@H]2C(=O)N3C(C(=O)O)=CCS[C@H]23)cs1"
  MEAS_VALUE: "1.02 (inactive)"
- COMPOUND: "C[C@H]1O[C@@H](O[C@H]2[C@@H](O)C[C@H](O[C@H]3[C@@H](O)C[C@H](O[C@H]4CC[C@]5(C)C6CC[C@]7(C)[C@@H](C8=CC(=O)OC8)CC[C@]7(O)C6CC[C@@H]5C4)O[C@@H]3C)O[C@@H]2C)C[C@H](O)[C@@H]1O (stereo partly drawn)"
  MEAS_VALUE: "1 (inactive)"
- COMPOUND: "CC1(C)[C@@H]2CC[C@@]1(C)C(=O)C2"
  MEAS_VALUE: "0.991 (inactive)"
- COMPOUND: "COC(=O)[C@H]1[C@H]2C[C@H]3c4[nH]c5cc(OC)ccc5c4CCN3C[C@H]2C[C@@H](OC(=O)c2cc(OC)c(OC)c(OC)c2)[C@@H]1OC"
  MEAS_VALUE: "1 (inactive)"
- COMPOUND: "CC[C@@]1(O)C(=O)OCc2c1cc1n(c2=O)Cc2cc3cc(O)ccc3nc2-1"
  MEAS_VALUE: "1.03 (inactive)"
- COMPOUND: "CC1=CC(=O)C(C(C)C)=CC1=O"
  MEAS_VALUE: "0.72 (active)"
- COMPOUND: "C=CCSSCC=C"
  MEAS_VALUE: "1.04 (inactive)"
- COMPOUND: "CCC(=O)NCC[C@@H]1CCc2ccc3c(c21)CCO3"
  MEAS_VALUE: "1 (inactive)"
- COMPOUND: "Nc1ccc(S(=O)(=O)Nc2ncccn2)cc1"
  MEAS_VALUE: "0.981 (inactive)"
- COMPOUND: "Cc1c(C(N)=O)cc([N+](=O)[O-])cc1[N+](=O)[O-]"
  MEAS_VALUE: "0.981 (inactive)"
- COMPOUND: "NC(=O)c1ccc([N+](=O)[O-])cc1Cl"
  MEAS_VALUE: "0.987 (inactive)"
- COMPOUND: "CC1(C)O[C@@H]2CC3C4C[C@H](F)C5=CC(=O)CC[C@]5(C)C4[C@@H](O)C[C@]3(C)[C@]2(C(=O)CO)O1 (stereo partly drawn)"
  MEAS_VALUE: "1.01 (inactive)"
- COMPOUND: "COC(=O)C[C@H]1C(C)(C)[C@@H](O)[C@@H]2CC3=C4CC(O)O[C@@H](c5ccoc5)[C@]4(C)CCC3[C@@]1(C)C2=O (stereo partly drawn)"
  MEAS_VALUE: "0.954 (inactive)"
- COMPOUND: "NCC(O)CC(=O)O (stereo not drawn)"
  MEAS_VALUE: "0.978 (inactive)"
- COMPOUND: "CCC(=O)O[C@]1(C(=O)CCl)[C@@H](C)CC2C3CCC4=CC(=O)C=C[C@]4(C)[C@@]3(F)[C@@H](O)C[C@@]21C (stereo partly drawn)"
  MEAS_VALUE: "1.02 (inactive)"
- COMPOUND: "C[C@H]1O[C@@H](O[C@H]2[C@@H](O)C[C@H](O[C@H]3[C@@H](O)C[C@H](O[C@H]4CC[C@]5(C)C6C[C@@H](O)[C@]7(C)[C@@H](C8=CC(=O)OC8)CC[C@]7(O)C6CC[C@@H]5C4)O[C@@H]3C)O[C@@H]2C)C[C@H](O)[C@@H]1O (stereo partly drawn)"
  MEAS_VALUE: "0.947 (inactive)"
- COMPOUND: "NCCCC(O)(P(=O)(O)O)P(=O)(O)O"
  MEAS_VALUE: "0.956 (inactive)"
- COMPOUND: "NCCCN"
  MEAS_VALUE: "0.995 (inactive)"
- COMPOUND: "O=S(=O)(O)O"
  MEAS_VALUE: "0.934 (inactive)"
- COMPOUND: "C/C=C/CC(C)C(O)C1C(=O)NC(CC)C(=O)N(C)CC(=O)N(C)C(CC(C)C)C(=O)NC(C(C)C)C(=O)N(C)C(CC(C)C)C(=O)NC(C)C(=O)NC(C)C(=O)N(C)C(CC(C)C)C(=O)N(C)C(CC(C)C)C(=O)N(C)C(C(C)C)C(=O)N1C (stereo not drawn)"
  MEAS_VALUE: "0.975 (inactive)"
- COMPOUND: "N#Cc1c(Cl)cccc1Cl"
  MEAS_VALUE: "0.974 (inactive)"
- COMPOUND: "CC1=C2C(O)C(=O)OC3CC4C(C)(C)C(=O)C=C[C@]4(C)C(CC1)[C@]23C (stereo partly drawn)"
  MEAS_VALUE: "0.983 (inactive)"
- COMPOUND: "C[C@@H]1O[C@@H](O[C@H]2CC[C@]3(C=O)C4CC[C@]5(C)[C@@H](C6=CC(=O)OC6)CC[C@]5(O)C4CC[C@]3(O)C2)[C@H](O)[C@H](O)[C@H]1O (stereo partly drawn)"
  MEAS_VALUE: "0.998 (inactive)"
- COMPOUND: "NC[C@H]1O[C@H](OC2[C@@H](N)C[C@@H](N)[C@H](O[C@H]3O[C@H](CO)[C@@H](O)[C@H](N)[C@H]3O)[C@H]2O)[C@H](O)[C@@H](O)[C@@H]1O (stereo partly drawn)"
  MEAS_VALUE: "0.976 (inactive)"
